The measurements presented in this section are drawn from patent US20070059364A1.

Quick reference for melting point among some compounds

compound | melting point
Cc1cccc2c1N(C1CCN(CC(=O)Nc3ccccc3C(=O)c3ccccc3)CC1)C(=O)OC2.Cl | 168 to 176 °C
Cc1ccc2c(c1)COC(=O)N2C1CCN(CC(=O)Nc2ccc3c(c2)-c2ccccc2C3O)CC1.Cl (stereo not drawn) | 238 to 241 °C
Cc1cccc2c1N(C1CCN(CC(=O)Nc3ccc4c(c3)C(=O)c3ccccc3-4)CC1)C(=O)OC2.Cl | > 300 °C (dec.)
Cc1ccc2c(c1)COC(=O)N2C1CCN(CC(=O)Nc2ccc(C3CCCCC3)cc2)CC1 | 155 to 157 °C
CCN(CC)CCc1c[nH]c2ccc(NS(=O)(=O)c3ccc4ccccc4c3)cc12 | 134 to 136 °C
CN1CCC(c2c[nH]c3ccc(NS(=O)(=O)c4cccc5ccccc45)cc23)CC1 [Example 12c] | 254 to 256 °C
O=S(=O)(Nc1ccc2ccn(CCN3CCCC3)c2c1)c1ccc(Oc2ccccc2)cc1 [Example 15f] | 59 to 62 °C
Cl.O=C(CN1CCC(N2C(=O)OCc3cc(Cl)ccc32)CC1)Nc1ccc2c(c1)-c1ccccc1C2O (stereo not drawn) | 219 to 222 °C
Cc1c(S(=O)(=O)Nc2ccc3c(ccn3CCN3CCCC3)c2)sc2ccc(Cl)cc12 [Example 18e] | 156 to 158 °C
Cl.O=C(CN1CCC(N2C(=O)OCc3ccccc32)CC1)Nc1ccc(Cl)cc1 | 272 to 276 °C
CN1CCN(Cc2c[nH]c3ccc(NS(=O)(=O)/C=C/c4ccccc4)cc23)CC1 | 203 °C (dec.)
CCCN(CCC)CCc1c[nH]c2ccc(NS(=O)(=O)c3ccc4ccccc4c3)cc12 | 58 to 64 °C (dec.)
Cc1ccc2c(c1)COC(=O)N2C1CCN(CC(=O)Nc2ccccc2)CC1 | 154 to 157 °C
Cl.O=C(CN1CCC(N2C(=O)OCc3cc(Cl)ccc32)CC1)Nc1ccc(C(=O)c2ccccc2)cc1 | 256 to 259 °C
CC(=O)c1ccc(S(=O)(=O)Nc2ccc3c(ccn3CCN(C)C)c2)cc1 [Example 21e] | 175 °C (dec.)
CN1CC=C(c2cn(S(=O)(=O)C3CCCCC3)c3ccc(N)cc23)CC1 | 75 °C (dec.)
Cc1cccc2c1COC(=O)N2C1CCN(CC(=O)Nc2ccc3oc4ccccc4c3c2)CC1 | 204 °C
O=S(=O)(Nc1ccc2c(ccn2CCN2CCCC2)c1)c1cccc2ccccc12 [Example 17e] | 186 to 189 °C
